Kindly state activity (relative to I-SceI) for each of the entries shown.
# Tested on: FAD2_T01_Left_C40 + FAD2_T01_Right_C40 TALEN pair
# assay.name: cell_activity
# test.conditions: yeast reporter cleavage
Numbers only.

Before answering, review these 3 worked examples.
CTCATGGAAAATAAGCCATCGCCGCCATCACTCCAACACAGGTTCCCTTGACCGTGATGAAGTGTTTGTCCC (double strand) [FAD2 Target 3]; 0
ATTTCTCATGGAAAATAAGCCATCGCCGCCATCACTCCAACACAGGTTCCCTTGACCGTGATGAAGTGTTTGTCCC (double strand) [FAD2 Target 4]; 0
ACATTGCCACCACCTACTTCCACCTCCTTCCTCAACCCTTTTCCCTCATTGCATGGCCAATCT (double strand) [FAD2 Target 2]; 0.73

[in] Look up activity (relative to I-SceI) for this sequence: GCCACCACCTACTTCCACCTCCTTCCTCAACCCTTTTCCCTCATTGCATGGCCAATCT (double strand) [FAD2 Target 1]
[out] 0.79
